# Test system: EKVX
# methodSummary: NCI tumour cell line growth inhibition, 48 h
Calls of active or inactive are those of the source. No stated cut-off is given here; in the data, active = GI50 up to about 1.1 µM and inactive = higher.
Labels: YES (active), NO (inactive)

| molecule | groupLabel |
| --- | --- |
| CCOC(=O)c1ccc(-c2cc(C)[nH]n2)[nH]1 | NO |
| COc1ccc2oc(S(=O)(=O)N3CC(CCl)c4ccc([N+](=O)[O-])cc43)cc2c1 (stereo unspecified) | YES |
| Nc1nc(-c2ccccc2)cc(-c2ccccc2O)n1 | NO |
| Cc1nc(C(N)=S)sc1C(=O)CC(=O)C(=O)Nc1nc2ccccc2[nH]1 | NO |
| N#CC1(C#N)C2CCCCC23OC(=N)C1(C#N)C(c1ccccc1)O3 (stereo unspecified) | NO |
| CC(C)(C)NCc1cc(C(C)(C)C)cc(-c2ccc(Cl)cc2)c1O | NO |

###

# Test system: MDA-MB-435
# methodSummary: NCI tumour cell line growth inhibition, 48 h
Active and inactive are the calls of the source. No stated cut-off is given here; in the data, active = GI50 up to about 1.1 µM and inactive = higher.
Possible outcomes: active, inactive

| molecule | measuredOn | groupLabel |
| --- | --- | --- |
| NC(=O)c1cccc(/N=c2\oc3ccc(Br)cc3cc2-c2nc3ccccc3[nH]2)c1 | MDA-MB-435 | inactive |
| COc1ccc(C(=O)NCCN(C)C)c2nc3ccccc3cc12 | MDA-MB-435 | inactive |
| CC(=O)NC1CONC1=O (centres undefined) | MDA-MB-435 | inactive |
| CNC(=O)Nc1cc2c3c(c1)CCCN3CCC2 | MDA-MB-435 | inactive |
| N/C(=N\Nc1ccc(Cl)cc1)c1cnccn1 | MDA-MB-435 | inactive |
| COc1cc2c(c(OC)c1OC)-c1ccc(SC)c(=O)cc1[C@@H](OC(C)=O)CC2 | MDA-MB-435 | active |
| O=C(CC(=O)Nc1ccccc1)NNC(c1cc(/N=N/c2ccc(Br)cc2)ccc1O)P(O)O (centres undefined) | MDA-MB-435 | inactive |
| CCn1c(=O)ccc2ccc(N(CCO)CCO)nc21 | MDA-MB-435 | inactive |
| CSC(=Nc1nnc(-c2ccc([N+](=O)[O-])cc2)s1)SC | MDA-MB-435 | inactive |
| O=C(Nc1cc2cc([N+](=O)[O-])ccc2oc1=O)c1cccs1 | MDA-MB-435 | inactive |
| CCOP(C)(=O)C(N)Cc1ccc(OC)c(OC)c1 (centres undefined) | MDA-MB-435 | inactive |
| Cn1c(=O)oc2cc(Br)ccc21 | MDA-MB-435 | inactive |
| COC(=O)c1c(O)ccc2c1c1cc3ccccc3c(O)c1n2Cc1ccccc1Cl | MDA-MB-435 | inactive |
| C[C@@H](NC(C#N)c1ccco1)c1ccccc1 (some centres undefined) | MDA-MB-435 | inactive |
| C[C@]1(O)CC(=O)c2c(c(-c3ccc4cc5c(c(O)c4c3O)C(=O)C[C@@](C)(O)C5)c3cccc(O)c3c2O)C1 | MDA-MB-435 | inactive |
| C/C=C1/CN2[C@@H](C3=C[C@@H]4[C@@H]5N(C3=O)c3ccccc3[C@@]53CCN5C/C(=C/C)[C@@H]4C[C@H]53)C[C@@]34c5ccccc5N5C(=O)CC=C([C@H]1C[C@H]23)[C@H]54 | MDA-MB-435 | inactive |
| COc1ccc2c(c1)c(=O)c1c(NCCCN(C)CCCNc3ccc4c(=O)n(CCN(C)C)c(=O)n5c6ccc(OC)cc6c(=O)c3c45)ccc3c(=O)n(CCN(C)C)c(=O)n2c31 | MDA-MB-435 | active |
| CC1(C)C(=O)N(O)C(C)(C)N1O | MDA-MB-435 | inactive |
| COc1nc(SC)nc2c1C(O)n1c(nc3ccccc31)S2 (centres undefined) | MDA-MB-435 | inactive |
